- assay_notes: Pharmacokinetics in rats after oral administration
- Assay type: in vivo, SD rats
- reported_conditions: male, SD, rat, 20 mg/kg, plasma
Listed here: items and their measured Tmax.
Number first, unit second: that is the form wanted.

| smi | observed_result |
| --- | --- |
| C=CC(=O)Nc1cc(Nc2nccc(-n3c(=O)n(C(C)C)c4cc(F)ccc43)n2)c(OC)cc1N(C)CCN(C)C | 1 h |
| C=CC(=O)Nc1cc(Nc2nccc(-n3ccc4nc(OC)ccc43)n2)c(OC)cc1N(C)CCN(C)C | 1.67 h |
| C=CC(=O)Nc1cc(Nc2nccc(-n3ccc4nc(Cl)ccc43)n2)c(OC)cc1N(C)CCN(C)C | 1.7 h |
| C=CC(=O)Nc1cc(Nc2nccc(-n3c(=O)n(C)c4cc(F)ccc43)n2)c(OC)cc1N(C)CCN(C)C | 1 h |

Request: Would you mind telling me what Tmax value was observed for C=CC(=O)Nc1cc(Nc2nccc(-n3c(=O)n(CC=C(C)C)c4ccccc43)n2)c(OC)cc1N(C)CCN(C)C ?
Result: 3.7 h
